tested on: Vero E6 infected with SARS-CoV-2; assay: inhibition of SARS-CoV-2 cytopathic effect; higher = more antiviral protection, active = above 15; settings: 833.33 nM; 48 h
Measurement label: inhibition of SARS-CoV-2 cytopathic effect (%)
Please reply with the bare figure in % and do not write the unit itself.

COc1ccc(C(=O)/C(Cc2cc(OC)c(OC)c(OC)c2)=C(\C(=O)O)c2ccc3c(c2)OCO3)cc1 | 1.73
C[C@@H](Oc1ccc2[nH]nc(/C=C/c3cnn(CCO)c3)c2c1)c1c(Cl)cncc1Cl | -13.8
O=C(Nc1ccc(C(=O)O)c(O)c1)c1ccccc1 | -0.08
Cc1ccc(OCCSc2ncccn2)c(Br)c1 | -4.19

Ask | Can you look up the measured inhibition of SARS-CoV-2 cytopathic effect of Oc1ccc2[nH]cc(C3=CCNCC3)c2n1 for me?
Reply | -1.7

Ask | Query: inhibition of SARS-CoV-2 cytopathic effect; subject: CC(C)(O)CC[C@@H](O)[C@](C)(O)[C@H]1CC[C@@]2(O)C3=CC(=O)[C@@H]4C[C@@H](O)[C@@H](O)C[C@]4(C)[C@H]3CC[C@]12C [20-hydroxyecdysone]
Reply | 0.03

Ask | Please report the recorded inhibition of SARS-CoV-2 cytopathic effect for CN1[C@@H]2CC[C@H]1C[C@@H](OC(=O)N1Cc3ccccc3NC1=O)C2 .
Reply | 1.84

Ask | Would you mind telling me what inhibition of SARS-CoV-2 cytopathic effect value was observed for Oc1ccc2c3c1O[C@H]1c4oc5ccccc5c4C[C@@]4(O)[C@@H](C2)N(CC2CC2)CC[C@]314 ?
Reply | -0.45

Ask | # inhibition of SARS-CoV-2 cytopathic effect lookup, item C=C1C(=O)[C@]23[C@H](O)[C@H]1CC[C@H]2[C@@]12CO[C@]3(O)[C@@H](O)[C@@H]1C(C)(C)CC[C@@H]2O
Reply | 3.78

Ask | # query: inhibition of SARS-CoV-2 cytopathic effect of entry O=C1c2ccccc2C(Cc2ccnc(F)c2)(Cc2ccnc(F)c2)c2ccccc21
Reply | 2.26

Ask | Entry under review: NC(=O)c1cnc(N[C@@H]2CCCC[C@@H]2N)nc1Nc1cccc(-n2nccn2)c1 . Reported inhibition of SARS-CoV-2 cytopathic effect?
Reply | -0.39

Ask | Fill in: inhibition of SARS-CoV-2 cytopathic effect of Cc1cccc(C)c1NC(=O)CC12CCCN1CCC2 [pilsicainide] is ___
Reply | 6.65

Ask | Field request: inhibition of SARS-CoV-2 cytopathic effect | item: C=C(C)[C@@H]1CC[C@]2(C(=O)O)CC[C@]3(C)[C@H](CC[C@@H]4[C@@]5(C)CC[C@H](O)C(C)(C)[C@@H]5CC[C@]43C)[C@@H]12
Reply | 0.38

Ask | May I ask what inhibition of SARS-CoV-2 cytopathic effect has been recorded for CC(=O)O[C@]1(C(C)=O)CC[C@H]2[C@@H]3C=C(C)C4=CC(=O)CC[C@@H]4[C@H]3CC[C@@]21C [nomegestrol-acetate] ?
Reply | 1.28

Ask | Need inhibition of SARS-CoV-2 cytopathic effect, item CC(C)c1nc(CN(C)C(=O)N[C@H](C(=O)N[C@@H](Cc2ccccc2)C[C@H](O)[C@H](Cc2ccccc2)NC(=O)OCc2cncs2)C(C)C)cs1
Reply | 3.37

---

test system: Vero E6 infected with SARS-CoV-2; assay: inhibition of SARS-CoV-2 cytopathic effect; higher = more antiviral protection, active = above 15; details: 10000 nM; 48 h
Returns: one label drawn from active, inactive

Cc1ccc(Cl)cc1N(CC(=O)Nc1c(F)cccc1F)S(C)(=O)=O | inactive
O=C(C1CCCCC1)N1CC(=O)N2CCc3ccccc3C2C1 (stereo not drawn) | inactive
CNc1ncnc2c1ncn2[C@@H]1O[C@H](CO)[C@@H](O)[C@H]1O | inactive
NCCCCN(Cc1nc2ccccc2[nH]1)[C@H]1CCCc2cccnc21 | inactive
Oc1ccc2c3c1O[C@H]1c4[nH]c5c(c4C[C@@]4(O)[C@@H](C2)N(CC2CC2)CC[C@]314)C[C@@]1(O)[C@H]2Cc3ccc(O)c4c3[C@@]1(CCN2CC1CC1)[C@H]5O4 | inactive
CN1CCN(C(=O)C2C(C(=O)O)[C@H]3CC[C@@H]2O3)CC1 (stereo partly drawn) | inactive
CCN(CC)CCNC(=O)c1c(C)[nH]c(/C=C2\C(=O)Nc3ccc(F)cc32)c1C | active
O=C(O)CCCC[C@@H]1CCSS1 | inactive

Ask | What did the test return for CC(C)Cn1cnc2c(N)nc3ccccc3c21 ?
Reply | inactive

Ask | GET /call?item= O=C(NCc1ccccc1)OCCO [buramate] returns the recorded outcome of this test.
Reply | inactive

Ask | Tell me the assay call for NS(=O)(=O)OC[C@@H]1C[C@@H](n2ccc3c(N[C@H]4CCc5ccccc54)ncnc32)C[C@@H]1O please.
Reply | inactive

Ask | Please let me know the test result on file for Oc1cccc(O)c1 .
Reply | inactive

Ask | Could you check what this test reported for CCCCCOc1ccc(-c2cc(-c3ccc(C(=O)N[C@H]4C[C@@H](O)[C@@H](O)NC(=O)[C@@H]5[C@@H](O)[C@@H](C)CN5C(=O)[C@H]([C@H](O)CC(N)=O)NC(=O)[C@H]([C@H](O)[C@@H](O)c5ccc(O)c(OS(=O)(=O)O)c5)NC(=O)[C@@H]5C[C@@H](O)CN5C(=O)[C@H]([C@@H](C)O)NC4=O)cc3)no2)cc1 ?
Reply | inactive

Ask | Identify the outcome logged in this assay for the compound shown: Cc1ncc([N+](=O)[O-])n1CC(O)CCl (stereo not drawn)
Reply | inactive

Ask | So what was the verdict on CCc1ccc(CCOc2ccc(CC3SC(=O)NC3=O)cc2)nc1 (stereo not drawn) in this test?
Reply | inactive

---

test system: Vero E6 infected with SARS-CoV-2; experiment: inhibition of SARS-CoV-2 cytopathic effect; higher = more antiviral protection, active = above 15; conditions: 10000 nM; 48 h
Measurement label: inhibition of SARS-CoV-2 cytopathic effect (%)
Give a bare numeral; the unit % is implied.

Ask | Look up inhibition of SARS-CoV-2 cytopathic effect for this compound: NC(N)=Nc1nc(CSCCN/C=N/S(=O)(=O)c2ccc(Br)cc2)cs1 [ebrotidine]
Reply | -2.58

Ask | Query (compound): CCN(CC)CCNC(=O)c1cc(S(C)(=O)=O)ccc1OC [tiapride] ; field requested: inhibition of SARS-CoV-2 cytopathic effect
Reply | 2.27

Ask | Looking for the measured inhibition of SARS-CoV-2 cytopathic effect of O=C(c1cc(S(=O)(=O)Nc2ccccc2F)c(F)cc1Cl)N1CCN2CCC[C@@H]2C1 , can you help?
Reply | -1.59

Ask | // inhibition of SARS-CoV-2 cytopathic effect lookup, key: C[C@@]1(C(=O)O)NCCc2cc(O)c(O)cc21 [salsolinol-1-carboxylic-acid]
Reply | 1.69

Ask | Name the recorded inhibition of SARS-CoV-2 cytopathic effect for COC(=O)N[C@H](C(=O)N1CCC[C@H]1C(=O)Nc1ccc([C@@H]2CC[C@@H](c3ccc(NC(=O)[C@@H]4CCCN4C(=O)[C@@H](NC(=O)OC)C(C)C)cc3)N2c2ccc(C(C)(C)C)cc2)cc1)C(C)C [ombitasvir] .
Reply | -1.21

Ask | Quick one: inhibition of SARS-CoV-2 cytopathic effect of N[C@@H](C(=O)N[C@@H]1C(=O)N2C(C(=O)O)=C(Cl)CS[C@H]12)c1ccccc1 [cefaclor] ?
Reply | 5.72

Ask | # query: inhibition of SARS-CoV-2 cytopathic effect of entry Cc1c(OCC(F)(F)F)ccnc1C[S+]([O-])c1nc2ccccc2[nH]1 (centres undefined) [lansoprazole]
Reply | -1.14

Ask | Can you share its inhibition of SARS-CoV-2 cytopathic effect? I mean this compound: OC1(c2ccc(Cl)c(C(F)(F)F)c2)CCN(CCCC(c2ccc(F)cc2)c2ccc(F)cc2)CC1 [penfluridol]
Reply | 33.9

Ask | Suppose we examine the compound CCC(C)SSc1ncc[nH]1 (centres undefined) ; what inhibition of SARS-CoV-2 cytopathic effect value has been reported?
Reply | -1.36

---

test system: Vero E6 infected with SARS-CoV-2; assay: inhibition of SARS-CoV-2 cytopathic effect; higher = more antiviral protection, active = above 15; details: 833.33 nM; 48 h
Measurement label: inhibition of SARS-CoV-2 cytopathic effect (%)
Quick note: give the figure in %, leave out the unit.

Example cases with answers are listed next.
COc1cc(Br)c(S(=O)(=O)Nc2ccc(Cl)c(O[C@@H]3CCN(C)C3)c2)cc1OC | -0.33
Cc1nc(Nc2ncc(C(=O)Nc3c(C)cccc3Cl)s2)cc(N2CCN(CCO)CC2)n1 | -12.6
O=C(O)CNC(=O)c1nc(Cl)c2ccccc2c1O | 2.19
COC(=O)C1=C(C)NC(C)=C(C(=O)OCCN2CCN(C(c3ccccc3)c3ccccc3)CC2)C1c1cccc([N+](=O)[O-])c1 (centres undefined) | 1.16
Cc1cc(N2CCN([C@@H]3CN[C@H](C(=O)N4CCSC4)C3)CC2)n(-c2ccccc2)n1 | 1.12
Oc1cc2c(cc1O)[C@@H]1c3ccc(O)c(O)c3OC[C@]1(O)C2 | 0.52

Ask | // lookup inhibition of SARS-CoV-2 cytopathic effect for O=C(O)CCc1nc(-c2ccccc2)c(-c2ccccc2)o1
Reply | -0.99

Ask | What does the data say about its inhibition of SARS-CoV-2 cytopathic effect? Entry: O=C1c2cccnc2OC[C@@H]2CCCN12
Reply | 0.64

Ask | # get_value(readout='inhibition of SARS-CoV-2 cytopathic effect', item= NS(=O)(=O)Nc1ncnc(OCCOc2ncc(Br)cn2)c1-c1ccc(Br)cc1 )
Reply | -3.11
